protocolText: soluble on expression in E. coli; label from the status in PepcDB or PDB records
resultType: soluble on expression in E. coli

- MKALRGMISEKGGWNLTVNNDNNTVVSSGGALDLSSGSKNLKIVKDGKKNNVTFDVARDLTLKSIKLDGVTLNETGLFIANGPQITASGINAGSQKITGVAEGTDANDAVNFGQLKKIETEVKEQVAASGFVKQDSDTKYLTIGKDTDGDTINIANNKSDKRT: soluble
- GSRRASVGSHEVEKSGLLNMTKIAQGGRKLRKNWGPSWVVLTGNSLVFYREPPPTAPSSGWGPAGSRPESSVDLRGAALAHGRHLSSRRNVLHIRTIPGHEFLLQSDHETELRAWHRALRTVIERLVRW: soluble
- MSLLNTYEPWKFAFSQEETDFNNLKEGAWGIIGVPFDSTTSYHPGSRFGPIVVREASYGFEKYNTIFNTQLDNIFYDFGDVNVVFGNCKKTCDIIEDTVNELSDLKIKPLTIGGEHSLTIGVLNSLTKKYDDLTVVHLDAHRDLADTFIGELYSHASVMKRVHEMGVKELVQIGIRSASKEEEDFVKNQSNITTFKNNDVFHHLDNIEYYLSIIDTPIYLSIDMDVFDPSIAPTVGNPTPNGIAYGHIEAMLQTLSLKNVVGMDVVETAGDRLGDITAVSASKIIYDFLSLLEGHHHHHH: soluble
